assay.text: Plasma concentration in C57BL/6J mouse at 30 mg/kg, po measured at 4 hrs
Type: ADME, organism-based
observable: concentration at 4 h (nM)
Give the value, in units of nM, as a plain number.

Sample C[C@@H](NC(=O)c1nn(-c2ccc(Cl)cc2Cl)c2c1CN(C(=O)CC(N)=O)C/C2=C\c1ccc(F)cc1)c1ccccn1 — what was its concentration at 4 h?
2290

----------
Reported concentration at 2 h values for a set of molecules
assay.text: Drug uptake in C57BL/6J mouse brain at 20 mg/kg, po measured at 2 hrs
Type: ADME, organism-based
test.settings: C57BL/6J, brain, read-out: Drug uptake

{"smiles.entry": "COc1ccc(/C=C2\\CN(C(=O)Cn3ccnc3)Cc3c(C(=O)N[C@H](C)c4ccccc4)nn(-c4ccc(Cl)cc4Cl)c32)cc1", "recorded.value": "< 5 ng/mL"}
{"smiles.entry": "COc1ccc(/C=C2\\CN(C(=O)c3cc[nH]n3)Cc3c(C(=O)N[C@H](C)c4ccccc4)nn(-c4ccc(Cl)cc4Cl)c32)cc1", "recorded.value": "< 5 ng/mL"}

Continue with the molecule presented below.
Sample COc1ccc(/C=C2\CN(C(=O)Cn3ccnn3)Cc3c(C(=O)N[C@H](C)c4ccccc4)nn(-c4ccc(Cl)cc4Cl)c32)cc1 — what was its concentration at 2 h?
< 5 ng/mL
